assay: Urinary excretion and renal clearance of colistin sulfate; type: in vivo, human; details: human, iv; six patients, 41 urine samples, 0-12 h dosage interval after 72 h of therapy; median; read-out: percentage of colistin dose excreted in urine, median
Where a name gives a salt, the structure may show the parent alone. Positions of bridges follow the written chain, without caps; N, C: chain ends. Non-standard residues stand in square brackets, D forms with d. Residues, ends and D or L forms follow the SMILES beside them. *: point of attachment. X1 = CC[C@H](C)CCCCC(=O)*; Dab = NCC[C@H](N)C(=O)O

{"columns": ["COMPOUND", "UNIT_TAG", "dose excreted"],
 "data": [
  ["CC[C@H](C)CCCCC(=O)N[C@@H](CCN)C(=O)N[C@H](C(=O)N[C@@H](CCN)C(=O)N[C@H]1CCNC(=O)[C@H]([C@@H](C)O)NC(=O)[C@H](CCN)NC(=O)[C@H](CCN)NC(=O)[C@H](CC(C)C)NC(=O)[C@@H](CC(C)C)NC(=O)[C@H](CCN)NC1=O)[C@@H](C)O [colistin sulfate] (X1-[Dab]T[Dab][Dab][Dab][dL]L[Dab][Dab]T; lactam 4-C)", "%", 10.1]
]}
